test system: Enterococcus sp.; experiment: in vitro antibacterial evaluation, MIC by broth dilution; assay type: cell-based; conditions: broth dilution, inoculum 5×10^5 CFU/mL, 18 hours at 35° C.; strain GC 2242
Catalogue of MIC Enterococcus faecalis (GC 2242) values
Your answer is read as µg/mL, so omit the unit and give the number.

COc1ccc(COCC2OC(OC3C(CO)OC(Oc4ccc(CC5NC(=O)C(C(C)c6ccccc6)NC(=O)CNC(=O)C(CO)NC(=O)C(C(O)C6CNC(=N)N6C6OC(CO)C(O)C(O)C6O)NC(=O)C(C(O)C6CNC(=N)N6)NC5=O)cc4)C(O)C3O)C(O)C(O)C2O)cc1 (stereo not drawn) [Example 232] = 16
CC(c1ccccc1)C1NC(=O)CNC(=O)C(CO)NC(=O)C(C(O)C2CNC(=N)N2C2OC(CO)C(O)C(O)C2O)NC(=O)C(C(O)C2CNC(=N)N2)NC(=O)C(Cc2ccc(OC3OC(CO)C(OC4OC(COCc5ccc(Oc6ccccc6)cc5)C(O)C(O)C4O)C(O)C3O)cc2)NC1=O (stereo not drawn) [Example 236] = 4

Data request: Please give the measured MIC Enterococcus faecalis (GC 2242) for this compound: CC(c1ccccc1)C1NC(=O)CNC(=O)C(CO)NC(=O)C(C(O)C2CNC(=N)N2C2OC(CO)C(O)C(O)C2O)NC(=O)C(C(O)C2CNC(=N)N2)NC(=O)C(Cc2ccc(OC3OC(CO)C(OC4OC5COC6(CCCCCCCCCCCC6)OC5C(O)C4O)C(O)C3O)cc2)NC1=O (stereo not drawn) [Example 210]
Data returned: 16

----------
system: Enterococcus sp.; test: in vitro antibacterial evaluation, MIC by broth dilution; type: cell-based; conditions: broth dilution, 18 hours at 35° C.
Numbered stars: 1 amine (or outer) side, 2 acyl side, 3 side chain; on linkers, the order of the positions; unused ones are H or OH. Square brackets hold non-standard residues; d marks the D form. Peptide text beside a SMILES is read from it. * marks the point of attachment. ξ: configuration not given here. X1 = N=C1NCC(C(O)C(N[*:1])C(=O)[*:2])N1C1OC(CO)C(O)C(O)C1O; ξEnduracididine(βξ-OH,4'ξ) = N=C1NCC(C(O)C(N)C(=O)O)N1; X2 = OCC1OC(OC2C(CO)OC(*)C(O)C2O)C(O)C(O)C1O; Diphenylacetyl = O=C(C(c1ccccc1)c1ccccc1)*; ξPhe(βξ-Me) = CC(c1ccccc1)C(N)C(=O)O
valueKind: MIC Enterococcus faecalis (GC 4554)

CC(c1ccccc1)C1NC(=O)CNC(=O)C(CO)NC(=O)C(C(O)C2CNC(=N)N2C2OC(CO)C(O)C(O)C2O)NC(=O)C(C(O)C2CNC(=N)N2)NC(=O)C(Cc2ccc(OC3OC(CO)C(OC4OC(CO)C(OCC=Cc5ccc(N(C)C)cc5)C(O)C4O)C(O)C3O)cc2)NC1=O (stereo not drawn) [Example 243a] = 32 µg/mL
CC(c1ccccc1)C1NC(=O)CNC(=O)C(COC(=O)C(c2ccccc2)c2ccccc2)NC(=O)C(C(O)C2CNC(=N)N2C2OC(CO)C(O)C(O)C2O)NC(=O)C(C(O)C2CNC(=N)N2)NC(=O)C(Cc2ccc(OC3OC(CO)C(OC4OC(CO)C(O)C(O)C4O)C(O)C3O)cc2)NC1=O (stereo not drawn) [Example 96a] (cyclo(G[ξPhe(βξ-Me)]Y(X2)[ξEnduracididine(βξ-OH,4'ξ)][X1]S(Diphenylacetyl)); configuration not given here) = >128 µg/mL

Pending compound:
Data request: Please give the measured MIC Enterococcus faecalis (GC 4554) for this compound: CN=C1N(C)CC(C(O)C2NC(=O)C(Cc3ccc(OC4OC(CO)C(OC5OC(CO)C(O)C(O)C5O)C(O)C4O)cc3)NC(=O)C(C(C)c3ccccc3)NC(=O)CNC(=O)C(CO)NC(=O)C(C(O)C3CN(C)C(=NC)N3C3OC(CO)C(O)C(O)C3O)NC2=O)N1C (stereo not drawn)
Data returned: >128 µg/mL
